The values you see were collected from PubChem BioAssay (NCI).

test system: A549/ATCC NSCLC; test: NCI-60 one-dose screen, 48 h (100 = growth as untreated, 0 = no growth, -100 = all killed); conditions: 10 µM unless noted
Compounds without any hit were thinned out: in the full panel of roughly 83,000, 20% have a hit.

| molecule | subject.of.test | value.unit | growth |
| --- | --- | --- | --- |
| CC(=O)n1cc(-c2c[nH]c3ccccc23)c(-c2ccc(Cl)cc2)n1 | A549/ATCC NSCLC | % | 93.7 |
| O=c1oc2ccc(Br)cc2c(=O)n1-c1ccc(F)cc1F | A549/ATCC NSCLC | % | 6.77 |
| Cc1cc(Br)c(N)c(Br)c1 | A549/ATCC NSCLC | % | 73.3 |
| COc1ccccc1N1CCN(C(CNS(=O)(=O)c2ccc(Cl)cc2)c2cccnc2)CC1 (stereo unspecified) | A549/ATCC NSCLC | % | 90.8 |
| O=C(Cc1ccccc1)NC(c1ccc(Cl)cc1)c1c(O)ccc2ccccc12 (stereo unspecified) | A549/ATCC NSCLC | % | 9.06 |
| COc1ccc(-c2nsc3c2NC(=O)CC3c2cccc(OC)c2)cc1 (stereo unspecified) | A549/ATCC NSCLC | % | 37.1 |
| COC(=O)[C@H](NC(=O)C1(C)CCC[C@]2(C)[C@H]3C[C@H]4C(C(C)C)=C[C@]3(CC[C@@H]12)[C@@H]1C(=O)CCC(=O)[C@@H]14)C(C)C (stereo partly specified) | A549/ATCC NSCLC | % | 94.4 |
| O=C(Nc1ccc(I)cc1F)c1cc(F)ccc1O | A549/ATCC NSCLC | % | 6.45 |
| COc1cc(-c2c3c(c(Br)n2Cc2ccccc2)-c2nc(N)sc2CC3)cc(OC)c1OC | A549/ATCC NSCLC | % | 82.9 |
| COc1ccccc1C(=O)/C=C/c1ccccc1 | A549/ATCC NSCLC | % | 76.1 |
| Cc1ccc(S(=O)c2ccc([N+](=O)[O-])c3nonc23)cc1 (stereo unspecified) | A549/ATCC NSCLC | % | 101 |
| COC(=O)/C(CCC=C(C)C)=C1\[C@@H](OC(C)=O)C[C@@]2(C)[C@H]1CC(=O)N[C@H]1[C@@]3(C)CCNC(=O)[C@@H](C)[C@@H]3CC[C@@]12C | A549/ATCC NSCLC | % | 106 |
| N#Cc1c(N)nc2c(c1N)C(c1ccc(F)cc1)c1ccc(N)cc1O2 (stereo unspecified) | A549/ATCC NSCLC | % | 101 |
| Cn1cc(-c2ccc3ncc(-c4ccc(CC(=O)Nc5cc(C(C)(C)C)no5)cc4)nc3c2)cn1 | A549/ATCC NSCLC | % | 33.7 |
| CCCCc1c(CCC)c(=N)c2ccccc2n1C | A549/ATCC NSCLC | % | 69.8 |
| Oc1c(C(Nc2ccccn2)c2cccc(Oc3ccccc3)c2)ccc2cccnc12 (stereo unspecified) | A549/ATCC NSCLC | % | -81.8 |
| O=C(CCN1C(=O)c2ccccc2C1=O)Nc1ccc(Cl)cc1 | A549/ATCC NSCLC | % | 79.2 |
| COc1ccc(C2Nc3ncnc(N)c3N=C3c4ccccc4C(=O)C32)cc1 (stereo unspecified) | A549/ATCC NSCLC | % | 96.3 |
| Cn1c2c(c(=O)[nH]c1=O)NC1=C(C(=O)c3ccccc31)C1(C=C(O)c3ccccc31)N2 (stereo unspecified) | A549/ATCC NSCLC | % | 102 |
| Nc1ccc(-c2ccc(-c3ccccc3N)c3[nH]c4ccccc4c23)cc1 | A549/ATCC NSCLC | % | 30.4 |
| O=C1c2cc(I)ccc2Oc2cc([N+](=O)[O-])ccc2N1c1ccc(Cl)cc1F | A549/ATCC NSCLC | % | 78.2 |
